- target_of_assay: T1, human NKG2D expressed on cells (human, UniProt P26718 1-216)
- T1 construct: the cell type is named under assay; also called NKG2D on NK92 cells; HEK293T human NKG2D
- T1 chain: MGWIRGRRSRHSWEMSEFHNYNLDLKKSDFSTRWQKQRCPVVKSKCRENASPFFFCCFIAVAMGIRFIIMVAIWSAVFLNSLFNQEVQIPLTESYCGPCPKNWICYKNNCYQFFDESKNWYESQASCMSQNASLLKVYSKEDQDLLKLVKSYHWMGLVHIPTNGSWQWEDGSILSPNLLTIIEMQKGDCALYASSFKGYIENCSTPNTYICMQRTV
- experimental_protocol: flow cytometry; NK92 cells, Zenon-labelled IgG
Each entry below carries its recorded EC50.
measured_quantity: EC50

binder: anti-NKG2D antibody clone 018 (antibody, V domains shown, From transgenic rabbits) VH: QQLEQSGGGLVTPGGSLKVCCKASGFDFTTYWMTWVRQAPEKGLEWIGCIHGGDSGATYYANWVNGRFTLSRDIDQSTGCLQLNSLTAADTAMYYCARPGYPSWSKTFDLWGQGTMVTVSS VL: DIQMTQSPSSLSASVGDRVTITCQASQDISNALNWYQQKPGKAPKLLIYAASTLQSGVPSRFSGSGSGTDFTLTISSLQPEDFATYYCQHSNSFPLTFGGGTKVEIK
result: 0.758 µg/mL

binder: anti-NKG2D antibody clone 230 (antibody, V domains shown, From transgenic rabbits) VH: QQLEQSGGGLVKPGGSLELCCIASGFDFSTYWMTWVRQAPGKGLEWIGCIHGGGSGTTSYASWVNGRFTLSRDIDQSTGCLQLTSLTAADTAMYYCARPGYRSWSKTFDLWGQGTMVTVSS VL: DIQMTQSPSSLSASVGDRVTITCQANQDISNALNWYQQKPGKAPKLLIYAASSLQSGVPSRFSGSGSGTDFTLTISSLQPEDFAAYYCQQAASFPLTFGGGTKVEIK
result: 0.988 µg/mL

binder: anti-NKG2D antibody clone 296 (antibody, V domains shown, From transgenic rabbits) VH: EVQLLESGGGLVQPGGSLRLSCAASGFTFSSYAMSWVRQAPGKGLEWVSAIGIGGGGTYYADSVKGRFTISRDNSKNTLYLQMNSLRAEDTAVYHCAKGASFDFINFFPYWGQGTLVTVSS VL: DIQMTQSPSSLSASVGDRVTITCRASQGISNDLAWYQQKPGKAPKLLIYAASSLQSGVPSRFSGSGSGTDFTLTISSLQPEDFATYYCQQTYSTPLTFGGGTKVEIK
result: 0.031 µg/mL
